Measured kinase still bound, per cent of control values are reported for all entries that follow.
- SYSTEM NAME: SIK2 (human)
- ASSAY NOTES: KINOMEscan competition binding
- CONDITION DESCRIPTION: compound 1.0 µM
Hi, when you answer, please include the unit after the number. Thanks!

The cases that follow already have their kinase still bound, per cent of control on record.
>  <MOL>
CN(C)C/C=C/C(=O)Nc1cccc(C(=O)Nc2ccc(Nc3nccc(-c4c(-c5ccccc5)nn5ccccc45)n3)cc2)c1

>  <SYSTEM NAME>
SIK2 (human)

>  <READOUT TYPE>
kinase still bound, per cent of control

>  <RESULT>
42%

$$$$
>  <MOL>
CN(C)C/C=C/C(=O)Nc1cccc(C(=O)Nc2ccc(Nc3nccc(-c4cccnc4)n3)cc2)c1

>  <SYSTEM NAME>
SIK2 (human)

>  <READOUT TYPE>
kinase still bound, per cent of control

>  <RESULT>
51%

$$$$
>  <MOL>
Cc1cc(NC(=O)c2cccc(NC(=O)/C=C/CN(C)C)c2)ccc1Nc1nccc(-c2cccnc2)n1

>  <SYSTEM NAME>
SIK2 (human)

>  <READOUT TYPE>
kinase still bound, per cent of control

>  <RESULT>
88%

$$$$

What kinase still bound, per cent of control value was documented for this molecule, CN(C)C/C=C/C(=O)Nc1cccc(C(=O)Nc2ccc(Nc3nccc(/C(C#N)=C4\Nc5ccccc5S4)n3)cc2)c1 ?
100%

---

kinase still bound, per cent of control values by entry
- SYSTEM NAME: UniProt P53778
- Sequence (P53778 whole entry, looked up): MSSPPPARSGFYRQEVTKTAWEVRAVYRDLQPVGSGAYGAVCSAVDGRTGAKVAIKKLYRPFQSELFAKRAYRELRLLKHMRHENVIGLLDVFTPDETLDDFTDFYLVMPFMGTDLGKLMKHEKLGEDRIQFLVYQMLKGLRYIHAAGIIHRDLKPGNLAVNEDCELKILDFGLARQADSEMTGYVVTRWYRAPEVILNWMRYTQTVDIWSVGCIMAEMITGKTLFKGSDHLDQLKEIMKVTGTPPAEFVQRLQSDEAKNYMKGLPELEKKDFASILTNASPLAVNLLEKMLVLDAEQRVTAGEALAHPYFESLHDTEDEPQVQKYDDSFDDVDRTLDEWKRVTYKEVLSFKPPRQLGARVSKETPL
- ASSAY NOTES: KINOMEscan competition binding
- CONDITION DESCRIPTION: compound 1.0 µM

Example entries begin here.
>  <MOL>
CN(C)C/C=C/C(=O)Nc1cccc(C(=O)Nc2ccc(Nc3nccc(-c4c(-c5ccccc5)nn5ccccc45)n3)cc2)c1

>  <READOUT TYPE>
kinase still bound, per cent of control

>  <RESULT>
94%

$$$$
>  <MOL>
CN(C)C/C=C/C(=O)Nc1cccc(C(=O)Nc2ccc(Nc3nccc(/C(C#N)=C4\Nc5ccccc5S4)n3)cc2)c1

>  <READOUT TYPE>
kinase still bound, per cent of control

>  <RESULT>
100%

$$$$

Which kinase still bound, per cent of control is listed for CN(C)C/C=C/C(=O)Nc1cccc(C(=O)Nc2ccc(Nc3nccc(-c4cccnc4)n3)cc2)c1 ?
78%

Requested field: kinase still bound, per cent of control. Item: Cc1cc(NC(=O)c2cccc(NC(=O)/C=C/CN(C)C)c2)ccc1Nc1nccc(-c2cccnc2)n1
100%

---

- SYSTEM NAME: IRAK1 (human)
- ASSAY NOTES: radiometric filter-binding kinase assay
READOUT TYPE: IC50 (nM)
Just the number please, in nM, no unit attached.

Which IC50 is listed for CN(C)C/C=C/C(=O)Nc1cccc(C(=O)Nc2ccc(Nc3nccc(-c4cccnc4)n3)cc2)c1 ?
175

---

- SYSTEM NAME: ABL2 (human)
- ASSAY NOTES: KINOMEscan competition binding
- CONDITION DESCRIPTION: compound 1.0 µM
// reported kinase still bound, per cent of control per item
Please answer in the form of a number followed by its unit of measurement.

Worked set:
>  <MOL>
CN(C)C/C=C/C(=O)Nc1cccc(C(=O)Nc2ccc(Nc3nccc(-c4cccnc4)n3)cc2)c1

>  <RESULT>
79%

$$$$
>  <MOL>
Cc1cc(NC(=O)c2cccc(NC(=O)/C=C/CN(C)C)c2)ccc1Nc1nccc(-c2cccnc2)n1

>  <RESULT>
97%

$$$$
>  <MOL>
CN(C)C/C=C/C(=O)Nc1cccc(C(=O)Nc2ccc(Nc3nccc(-c4c(-c5ccccc5)nn5ccccc45)n3)cc2)c1

>  <RESULT>
21%

$$$$

Kindly review the next molecule as well.
# input molecule: CN(C)C/C=C/C(=O)Nc1cccc(C(=O)Nc2ccc(Nc3nccc(/C(C#N)=C4\Nc5ccccc5S4)n3)cc2)c1 ; wanted: its kinase still bound, per cent of control
100%

---

- SYSTEM NAME: TSSK1B (human) (UniProt Q9BXA7)
- Sequence (Q9BXA7 whole entry, looked up): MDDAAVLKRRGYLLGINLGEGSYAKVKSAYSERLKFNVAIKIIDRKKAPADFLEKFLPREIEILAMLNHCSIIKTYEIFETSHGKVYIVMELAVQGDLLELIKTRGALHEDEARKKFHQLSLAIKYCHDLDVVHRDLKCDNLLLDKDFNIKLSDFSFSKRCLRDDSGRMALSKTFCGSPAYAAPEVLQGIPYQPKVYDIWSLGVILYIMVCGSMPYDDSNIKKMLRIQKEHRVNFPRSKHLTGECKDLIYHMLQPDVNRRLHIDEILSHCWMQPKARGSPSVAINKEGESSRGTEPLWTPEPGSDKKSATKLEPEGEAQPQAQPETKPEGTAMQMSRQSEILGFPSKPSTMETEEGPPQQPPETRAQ
- ASSAY NOTES: KINOMEscan competition binding
- CONDITION DESCRIPTION: compound 1.0 µM
Items are presented alongside their recorded kinase still bound, per cent of control.
Please respond with the number in % and leave the unit unwritten.

// below: answered compounds
>  <MOL>
CN(C)C/C=C/C(=O)Nc1cccc(C(=O)Nc2ccc(Nc3nccc(/C(C#N)=C4\Nc5ccccc5S4)n3)cc2)c1

>  <UNIT STRING>
%

>  <kinase still bound, per cent of control>
100

$$$$
>  <MOL>
CN(C)C/C=C/C(=O)Nc1cccc(C(=O)Nc2ccc(Nc3nccc(-c4c(-c5ccccc5)nn5ccccc45)n3)cc2)c1

>  <UNIT STRING>
%

>  <kinase still bound, per cent of control>
86

$$$$
>  <MOL>
CN(C)C/C=C/C(=O)Nc1cccc(C(=O)Nc2ccc(Nc3nccc(-c4cccnc4)n3)cc2)c1

>  <UNIT STRING>
%

>  <kinase still bound, per cent of control>
100

$$$$

Turning now to a further record.
I would be grateful if you could share the reported kinase still bound, per cent of control for Cc1cc(NC(=O)c2cccc(NC(=O)/C=C/CN(C)C)c2)ccc1Nc1nccc(-c2cccnc2)n1 .
100

---

- SYSTEM NAME: PTK2 (human) (UniProt Q05397)
- Sequence (Q05397 whole entry, looked up): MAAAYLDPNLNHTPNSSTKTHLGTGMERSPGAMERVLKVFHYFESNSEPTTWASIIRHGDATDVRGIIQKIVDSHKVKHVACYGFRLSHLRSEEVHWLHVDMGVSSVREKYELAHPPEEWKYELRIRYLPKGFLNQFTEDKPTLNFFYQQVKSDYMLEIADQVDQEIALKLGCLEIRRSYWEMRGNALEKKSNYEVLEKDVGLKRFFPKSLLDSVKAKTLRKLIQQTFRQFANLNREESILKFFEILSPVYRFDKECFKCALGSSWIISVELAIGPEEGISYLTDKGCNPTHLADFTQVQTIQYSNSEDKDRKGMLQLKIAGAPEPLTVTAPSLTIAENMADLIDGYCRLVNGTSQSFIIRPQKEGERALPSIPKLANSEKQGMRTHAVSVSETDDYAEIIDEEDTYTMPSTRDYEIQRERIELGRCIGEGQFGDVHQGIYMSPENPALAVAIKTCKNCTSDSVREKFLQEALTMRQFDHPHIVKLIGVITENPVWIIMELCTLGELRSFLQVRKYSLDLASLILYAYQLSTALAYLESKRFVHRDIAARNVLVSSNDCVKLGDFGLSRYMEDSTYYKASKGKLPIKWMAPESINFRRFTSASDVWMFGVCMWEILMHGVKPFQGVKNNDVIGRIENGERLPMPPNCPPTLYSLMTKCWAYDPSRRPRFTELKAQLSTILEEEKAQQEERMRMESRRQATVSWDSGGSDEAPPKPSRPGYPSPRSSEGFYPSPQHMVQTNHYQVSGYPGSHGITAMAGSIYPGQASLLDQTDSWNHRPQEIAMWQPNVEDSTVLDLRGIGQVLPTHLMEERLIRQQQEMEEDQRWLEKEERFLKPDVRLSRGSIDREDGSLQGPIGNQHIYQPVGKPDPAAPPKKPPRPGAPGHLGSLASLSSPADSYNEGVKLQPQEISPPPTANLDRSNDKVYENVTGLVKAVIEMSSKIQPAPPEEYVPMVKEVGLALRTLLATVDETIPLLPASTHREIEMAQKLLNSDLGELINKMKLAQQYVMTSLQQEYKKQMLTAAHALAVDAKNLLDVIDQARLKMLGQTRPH
- ASSAY NOTES: KINOMEscan competition binding
- CONDITION DESCRIPTION: compound 1.0 µM
The following compounds are listed with their measured kinase still bound, per cent of control values.

>  <MOL>
CN(C)C/C=C/C(=O)Nc1cccc(C(=O)Nc2ccc(Nc3nccc(/C(C#N)=C4\Nc5ccccc5S4)n3)cc2)c1

>  <RESULT>
100%

$$$$
>  <MOL>
CN(C)C/C=C/C(=O)Nc1cccc(C(=O)Nc2ccc(Nc3nccc(-c4cccnc4)n3)cc2)c1

>  <RESULT>
100%

$$$$
>  <MOL>
Cc1cc(NC(=O)c2cccc(NC(=O)/C=C/CN(C)C)c2)ccc1Nc1nccc(-c2cccnc2)n1

>  <RESULT>
11%

$$$$

// below: kinase still bound, per cent of control requested for another compound
Fill in the blank: the reported kinase still bound, per cent of control of CN(C)C/C=C/C(=O)Nc1cccc(C(=O)Nc2ccc(Nc3nccc(-c4c(-c5ccccc5)nn5ccccc45)n3)cc2)c1 is ____.
95%

---

- SYSTEM NAME: STK25 (human)
- ASSAY NOTES: KINOMEscan competition binding
- CONDITION DESCRIPTION: compound 1.0 µM
Quick reference for kinase still bound, per cent of control among some compounds
# unit: % | format: bare number

>  <MOL>
CN(C)C/C=C/C(=O)Nc1cccc(C(=O)Nc2ccc(Nc3nccc(-c4cccnc4)n3)cc2)c1

>  <UNIT STRING>
%

>  <RECORDED NUMBER>
58

$$$$
>  <MOL>
CN(C)C/C=C/C(=O)Nc1cccc(C(=O)Nc2ccc(Nc3nccc(-c4c(-c5ccccc5)nn5ccccc45)n3)cc2)c1

>  <UNIT STRING>
%

>  <RECORDED NUMBER>
100

$$$$
>  <MOL>
CN(C)C/C=C/C(=O)Nc1cccc(C(=O)Nc2ccc(Nc3nccc(/C(C#N)=C4\Nc5ccccc5S4)n3)cc2)c1

>  <UNIT STRING>
%

>  <RECORDED NUMBER>
100

$$$$

Now consider a different compound.
Look up kinase still bound, per cent of control for this compound: Cc1cc(NC(=O)c2cccc(NC(=O)/C=C/CN(C)C)c2)ccc1Nc1nccc(-c2cccnc2)n1
92

---

- SYSTEM NAME: UniProtKB Q9Y243
- Sequence (Q9Y243 whole entry, looked up): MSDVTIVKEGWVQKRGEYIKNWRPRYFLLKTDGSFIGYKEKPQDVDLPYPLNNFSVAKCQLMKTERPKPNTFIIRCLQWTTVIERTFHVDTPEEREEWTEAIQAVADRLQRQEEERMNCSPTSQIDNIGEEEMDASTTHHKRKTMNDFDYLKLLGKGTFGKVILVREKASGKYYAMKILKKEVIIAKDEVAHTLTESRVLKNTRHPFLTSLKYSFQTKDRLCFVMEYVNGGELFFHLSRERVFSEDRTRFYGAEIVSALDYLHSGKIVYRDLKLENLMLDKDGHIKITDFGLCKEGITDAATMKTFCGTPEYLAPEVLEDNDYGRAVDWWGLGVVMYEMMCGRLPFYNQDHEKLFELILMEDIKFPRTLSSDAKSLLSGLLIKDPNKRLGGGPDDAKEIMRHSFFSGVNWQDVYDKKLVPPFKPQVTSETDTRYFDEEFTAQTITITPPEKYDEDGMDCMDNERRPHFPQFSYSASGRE
- ASSAY NOTES: KINOMEscan competition binding
- CONDITION DESCRIPTION: compound 1.0 µM
# kinase still bound, per cent of control annotations
Write the answer as a number in %, unit excluded.

Can you look up the measured kinase still bound, per cent of control of CN(C)C/C=C/C(=O)Nc1cccc(C(=O)Nc2ccc(Nc3nccc(/C(C#N)=C4\Nc5ccccc5S4)n3)cc2)c1 for me?
100

Reported kinase still bound, per cent of control for CN(C)C/C=C/C(=O)Nc1cccc(C(=O)Nc2ccc(Nc3nccc(-c4cccnc4)n3)cc2)c1 : what is it?
100

# input molecule: Cc1cc(NC(=O)c2cccc(NC(=O)/C=C/CN(C)C)c2)ccc1Nc1nccc(-c2cccnc2)n1 ; wanted: its kinase still bound, per cent of control
100

I'd like to know its kinase still bound, per cent of control. The molecule in question is CN(C)C/C=C/C(=O)Nc1cccc(C(=O)Nc2ccc(Nc3nccc(-c4c(-c5ccccc5)nn5ccccc45)n3)cc2)c1
80

---

- SYSTEM NAME: PKMYT1 (human) (UniProt Q99640)
- Sequence (Q99640 whole entry, looked up): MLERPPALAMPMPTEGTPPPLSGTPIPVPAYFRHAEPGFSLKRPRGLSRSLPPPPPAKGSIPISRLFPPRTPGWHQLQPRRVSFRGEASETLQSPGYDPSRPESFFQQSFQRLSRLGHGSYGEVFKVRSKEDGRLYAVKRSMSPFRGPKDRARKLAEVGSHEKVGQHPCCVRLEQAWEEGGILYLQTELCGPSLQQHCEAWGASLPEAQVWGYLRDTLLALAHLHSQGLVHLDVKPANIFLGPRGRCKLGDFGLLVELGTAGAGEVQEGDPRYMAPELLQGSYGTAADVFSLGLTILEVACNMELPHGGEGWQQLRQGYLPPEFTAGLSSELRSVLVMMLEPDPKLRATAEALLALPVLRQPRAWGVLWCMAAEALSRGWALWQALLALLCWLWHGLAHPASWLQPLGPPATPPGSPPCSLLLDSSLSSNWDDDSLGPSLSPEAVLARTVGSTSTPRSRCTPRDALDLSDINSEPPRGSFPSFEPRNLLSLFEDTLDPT
- ASSAY NOTES: KINOMEscan competition binding
- CONDITION DESCRIPTION: compound 1.0 µM
READOUT TYPE: kinase still bound, per cent of control (%)
The reply should be a number in %, with the unit left off.

Below: 3 molecules and their reported kinase still bound, per cent of control.
>  <MOL>
CN(C)C/C=C/C(=O)Nc1cccc(C(=O)Nc2ccc(Nc3nccc(-c4cccnc4)n3)cc2)c1

>  <READOUT TYPE>
kinase still bound, per cent of control

>  <UNIT STRING>
%

>  <RECORDED NUMBER>
100

$$$$
>  <MOL>
Cc1cc(NC(=O)c2cccc(NC(=O)/C=C/CN(C)C)c2)ccc1Nc1nccc(-c2cccnc2)n1

>  <READOUT TYPE>
kinase still bound, per cent of control

>  <UNIT STRING>
%

>  <RECORDED NUMBER>
69

$$$$
>  <MOL>
CN(C)C/C=C/C(=O)Nc1cccc(C(=O)Nc2ccc(Nc3nccc(/C(C#N)=C4\Nc5ccccc5S4)n3)cc2)c1

>  <READOUT TYPE>
kinase still bound, per cent of control

>  <UNIT STRING>
%

>  <RECORDED NUMBER>
100

$$$$

Give the measured kinase still bound, per cent of control of CN(C)C/C=C/C(=O)Nc1cccc(C(=O)Nc2ccc(Nc3nccc(-c4c(-c5ccccc5)nn5ccccc45)n3)cc2)c1 .
100
